Catalogue of pIC50 readings, one per entry.
# Assayed target: glycine receptor of the NMDA receptor complex (Rattus norvegicus, UniProt P35439)
# Construct: neuronal synaptic membranes are prepared from adult (about 250 g) male Sprague-Dawley rats
# Assay remarks: [3H]-glycine binding assay
# Condition notes: 20 nM [3H]-glycine, rat neuronal synaptic membranes (cortices and hippocampi), pH 7.1, 30 min, 4° C.
pIC50: −log10 of the molar value.

* O=c1[nH]c2cc(Cl)ccc2c(=O)cc1NC[C@H](O)[C@@H](O)[C@H](O)[C@H](O)CO | ~4.37

Kindly review the next compound as well.
# lookup: pIC50 of `O=c1[nH]c2cc(Cl)ccc2c(=O)cc1N1CCCC1` ~3.33
